# Tested on: E. coli AB264
# Procedure Text: Sensitization to antibiotics: MIC in medium supplemented with phytoglycogen
# Type: cell-based
# Measurement Context: Escherichia coli; cationized phytoglycogen at half-strength of its MIC
Overview of reported fold-change reduction in MIC, CP0.5 across a group of compounds:

Recall the reported fold-change reduction in MIC, CP0.5 of CC1(C)S[C@@H]2[C@H](NC(=O)[C@H](N)c3ccccc3)C(=O)N2[C@H]1C(=O)O when tested on E. coli AB264.
1-2 fold

Turning now to a further record.
Recall the reported fold-change reduction in MIC, CP0.5 of CC[C@H]1OC(=O)[C@H](C)[C@@H](O[C@H]2C[C@@](C)(OC)[C@@H](O)[C@H](C)O2)[C@H](C)[C@@H](O[C@@H]2O[C@H](C)C[C@H](N(C)C)[C@H]2O)[C@](C)(O)C[C@@H](C)C(=O)[C@H](C)[C@@H](O)[C@]1(C)O when tested on E. coli AB264.
1-2 fold
